- Tested on: K-562 leukemia
- Protocol: NCI-60 one-dose screen, 48 h (100 = growth as untreated, 0 = no growth, -100 = all killed)
- Condition description: 10 µM unless noted
- Method: Cells are grown in 96 well plates and exposed to the test compound for 48 hours. Compounds are tested at a single concentration, which is 10^-5 M for most compounds. The reported endpoint is percent growth (GI% or GIPRCNT), where numbers from 0 - 100% represent growth inhibition, and numbers from -100% - 0 represent cell death. For example, a value of 40 represents 60% growth inhibition. A value of 0 means no net growth occurred over the course of the experiment. […]
This is part of a sample that, as a whole, favours compounds with a hit. Of some 83,000 tested, about 20% had one in any assay. Active and inactive are the calls of the source. The calls were made as follows: active = growth percent below 10; inactive = the rest.
Measured growth values are reported for all entries that follow.

Past entries and their recorded results:
- Compound: "O=C(/C=C/c1cc2ccccc2[nH]c1=O)c1ccc(O)cc1"
  growth: "5.94% (active)"
- Compound: "CCOC(=O)c1c(C)c(C(=O)OCC)n(C)c1C"
  growth: "103% (inactive)"
- Compound: "Cc1c(C(N)=O)sc2ncn(Cc3ccccc3)c(=O)c12"
  growth: "97.1% (inactive)"

We now examine a further compound.
Query: So what growth did "C[C@]12CC[C@@H]3c4ccc(O)c([N+](=O)[O-])c4CC[C@H]3[C@@H]1CC[C@@H]2NS(=O)(=O)c1cccc(Br)c1" get with K-562 leukemia?
Result: 8.39% (active)

* * *

Entries annotated with measured growth
- System: T-47D breast
- Protocol: NCI-60 one-dose screen, 48 h (100 = growth as untreated, 0 = no growth, -100 = all killed)
- Condition description: 10 µM unless noted
Compounds without any hit were thinned out: in the full panel of roughly 83,000, 20% have a hit. Activity calls are given as the source filed them. Rule for the calls: active = growth percent below 10; inactive = the rest.

- Compound: "COc1ccc(/C(=C2\\O[C@@H]([C@H](O)CO)[C@H]3OC(C)(C)O[C@@H]23)c2cc(OC)c(OC)c(OC)c2)cc1O"
  growth: "102% (inactive)"

Query: Data request, read-out growth, for "Clc1ccc([C@@H]2C[C@@H]3Cc4cc(Br)c5ccccc5c4N2O3)c(Cl)c1"
Result: 96.9% (inactive)

Query: Also C[N+]1(CCC[N+]2(C)C[C@@H]3[C@H](C2)[C@@H]2C=C[C@H]3C2)CCOCC1 (some centres undefined) ?
Result: 109% (inactive)

* * *

- System: A498 renal
- Protocol: NCI-60 one-dose screen, 48 h (100 = growth as untreated, 0 = no growth, -100 = all killed)
- Condition description: 10 µM unless noted
Compounds without any hit were thinned out: in the full panel of roughly 83,000, 20% have a hit.
Tag: true (1) if measured growth is not below 80%, false (0) if it is.

Study these solved cases before continuing.
- Compound: "Cn1c(=O)c2nc(SCc3ccccc3)n(C)c2n(C)c1=O"
  Assigned class: "false (0)"
- Compound: "c1ccc2cc(C[n+]3ccn(CCCCCCCn4cc[n+](Cc5ccc6ccccc6c5)c4)c3)ccc2c1"
  Assigned class: "false (0)"
- Compound: "CCN(CC)CCOc1ccc(C2=C(c3ccccc3)CCc3cc(OC)ccc32)cc1"
  Assigned class: "false (0)"
- Compound: "O=C(Nc1ccc(Nc2ccncc2)cc1)c1ccc(Nc2ccnc3ccc([N+](=O)[O-])cc23)cc1[N+](=O)[O-]"
  Assigned class: "true (1)"
- Compound: "S=c1[nH]nc2sc3ccccc3n12"
  Assigned class: "false (0)"
- Compound: "C/C(=N/N=C(N)N)c1ccc(N)cc1"
  Assigned class: "true (1)"
- Compound: "COc1cc(/C=C2\\CCC/C(=C\\c3ccc(OCC4CO4)c(OC)c3)C2=O)ccc1OCC1CO1 (centres undefined)"
  Assigned class: "false (0)"
- Compound: "COc1cc(/C=C/c2nnc(-c3cc(-c4ccccc4)n[nH]3)o2)cc(OC)c1OC"
  Assigned class: "true (1)"
- Compound: "Cc1c(NCc2nnc3n(Cc4ccccc4)c(=O)c4c5c(sc4n23)CCCC5)c(=O)n(-c2ccccc2)n1C"
  Assigned class: "false (0)"
- Compound: "CCOc1nc(-c2ccccc2)cc2c(O)c(C(=O)n3nc(C)cc3C)[nH]c(=O)c12"
  Assigned class: "true (1)"

Query: Identify whether the reported growth of the following compound is 80% or greater: "CC(C)c1nc(N(C)S(C)(=O)=O)nc(-c2ccc(F)cc2)c1/C=C/[C@@H](O)C[C@@H](O)CC(=O)O"
Result: false (0)

Query: Consider next the compound "Cc1cccc(Cl)c1NC(=O)c1ccc2nc(NC(=O)NC3CC(C)(C)NC(C)(C)C3)sc2c1" in the same way.
Result: true (1)

Query: Please answer likewise for O=C(C(=O)N1CCOCC1)c1ccc(OC2OC(CO)C(O)C(O)C2O)cc1 (centres undefined)
Result: true (1)

Query: Another compound to look at: "COc1ccc(Nc2nccc(N3CCN(c4c5ccc(Cl)cc5nc5ccc(OC)cc45)CC3)n2)cc1"
Result: false (0)

Query: Entry to check: COc1cc([C@@H]2c3cc4c(cc3C(O[C@@H]3O[C@@H]5CO[C@@H](c6cccs6)OC5[C@H](O)[C@H]3O)C3COC(=O)[C@@H]32)OCO4)cc(OC)c1O (some centres undefined)
Result: false (0)

Query: Then O=C1CCCN1C1CCN(Cc2cc3ccccc3[nH]c2=O)c2ccccc21 (centres undefined) ?
Result: true (1)

Query: Try this compound too: "Cc1c(C(N)=O)sc2ncn(CC(=O)Nc3ccc(Cl)cc3)c(=O)c12"
Result: true (1)
